# credit: PubChem BioAssay (EPA / NIEHS)

- protocol: ATG_FoxO_CIS: Attagene CIS-FACTORIAL HepG2 Assay for human Forkhead box O (FoxO) (AID 2282943)
- measurement_setup: HepG2 Attagene cis-reporter, FoxO element, mRNA; actives raise or lower the signal
Calls of active or inactive are those of the source. The calls were made as follows: active = hit-call score of the fitted dose curve at least 0.9, where 1 is the maximum; inactive = score below 0.9.
The categories you may choose from are active, inactive

Recorded results for 3 molecules are shown here.
CCOc1ccccc1OCC = inactive
CCCCCCCCCCCCOCCO = active
COC(=O)OC = inactive

What classification did `OCC(CO)(CO)COCC(CO)(CO)CO` end up with in this test? inactive

What classification did `CCCC(=O)C(C)=O` end up with in this test? inactive

What classification did `Cc1cccc(C)c1C` end up with in this test? inactive

What classification did `CCCCOCCOCCSC#N` end up with in this test? inactive

What classification did `Cc1cc(C2(c3cc(C)c(O)cc3C)OS(=O)(=O)c3ccccc32)c(C)cc1O` end up with in this test? inactive

====

- Read-out: Transforming growth factor beta 1 (TGFb1), TGFB1 (gene 7040)
- protocol: BSK_KF3CT_TGFb1: BioMAP Diversity Plus: KF3CT Assay for Transforming growth factor beta 1 (TGFb1) Biomarker Activity (AID 2283072)
- measurement_setup: primary human keratinocytes with fibroblasts; actives raise or lower the signal
Active and inactive are the calls of the source. How the source made its calls: active means hit-call score of the fitted dose curve at least 0.9, where 1 is the maximum; inactive means score below 0.9.
The categories you may choose from are yes (active), no (inactive)

Recorded results for 5 compounds are shown here.
CNC[C@H](O)c1cccc(O)c1 = no
O=[N+]([O-])c1cc(C(F)(F)F)ccc1Cl = no
Nc1cc([N+](=O)[O-])ccc1Cl = no
Cc1ccc(O)c(C(C)(C)C)c1 = yes
BrC1CCC(Br)C(Br)CCC(Br)C(Br)CCC1Br (configuration not stated) = no

What classification did CN(CCOc1ccc(CC2SC(=O)NC2=O)cc1)c1ccccn1 (configuration not stated) end up with in this test? yes

What classification did `O=C(O)c1ccc([N+](=O)[O-])cc1` end up with in this test? no

What classification did `O=P(c1ccccc1)(c1ccccc1)c1ccccc1` end up with in this test? no

What classification did `C=C(C)C(=O)O[C@H]1C[C@@H]2CC[C@@]1(C)C2(C)C` end up with in this test? no

What classification did CC1COc2ccccc2N1C(=O)C(Cl)Cl (configuration not stated) end up with in this test? no

What classification did `Cc1ccc2n[nH]nc2c1` end up with in this test? no

What classification did `O=C(O)C[C@H](O)C[C@H](O)/C=C/c1c(C2CC2)nc2ccccc2c1-c1ccc(F)cc1` end up with in this test? no

====

- Read-out: Transforming growth factor beta 1 (TGFb1), TGFB1 (gene 7040)
- protocol: BSK_BE3C_TGFb1: BioMAP Diversity Plus: BE3C Assay for Transforming growth factor beta 1 (TGFb1) Biomarker Activity (AID 2283036)
- measurement_setup: primary human bronchial epithelial cells; actives raise or lower the signal
Activity calls are given as the source filed them. How the source made its calls: active means hit-call score of the fitted dose curve at least 0.9, where 1 is the maximum; inactive means score below 0.9.
The categories you may choose from are active, inactive

Recorded results for 3 molecules are shown here.
COC(=O)c1ccc(C)cc1 = inactive
O=C1OC2(c3cc(Br)c(O)c(Br)c3Oc3c2cc(Br)c(O)c3Br)c2c(Cl)c(Cl)c(Cl)c(Cl)c21 = active
O=C(O)C[C@H](O)C[C@H](O)/C=C/c1c(C2CC2)nc2ccccc2c1-c1ccc(F)cc1 = inactive

Now look at this entry.
What classification did `CC(C)c1ccc(C(C)C)cc1` end up with in this test? inactive

====

- system: Heat shock factor protein 1 (Homo sapiens) (UniProt Q00613)
- Sequence (Q00613 whole entry, looked up): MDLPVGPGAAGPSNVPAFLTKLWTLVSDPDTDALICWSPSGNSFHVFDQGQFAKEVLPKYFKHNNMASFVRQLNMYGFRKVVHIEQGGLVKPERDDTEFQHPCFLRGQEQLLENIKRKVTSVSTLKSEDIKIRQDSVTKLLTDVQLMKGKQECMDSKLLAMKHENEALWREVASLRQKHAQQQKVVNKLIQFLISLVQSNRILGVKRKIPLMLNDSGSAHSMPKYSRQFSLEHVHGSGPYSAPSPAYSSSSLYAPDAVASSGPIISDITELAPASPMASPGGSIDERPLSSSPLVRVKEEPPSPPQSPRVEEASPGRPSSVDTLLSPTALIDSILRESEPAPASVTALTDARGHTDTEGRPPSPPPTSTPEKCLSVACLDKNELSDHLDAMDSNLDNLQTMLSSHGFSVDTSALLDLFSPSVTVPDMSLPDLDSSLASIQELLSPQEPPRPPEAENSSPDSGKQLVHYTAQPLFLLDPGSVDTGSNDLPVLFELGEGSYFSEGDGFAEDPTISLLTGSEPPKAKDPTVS
- protocol: ATG_HSE_CIS: Attagene CIS-FACTORIAL HepG2 Assay for human Heat Shock Transcription Factor 1 (HSE) (AID 2282953)
- measurement_setup: HepG2 HSE cis-reporter, Attagene RNA transcription; actives raise or lower the signal
Active and inactive are the calls of the source. The calls were made as follows: active = hit-call score of the fitted dose curve at least 0.9, where 1 is the maximum; inactive = score below 0.9.
The categories you may choose from are active, inactive

CCc1ccc(C=O)cc1 = inactive
CC(=O)OCCC(C)CC(C)(C)C (configuration not stated) = inactive
O=C(O)c1ccc(C(=O)O)cc1 = inactive
CCOC(=S)SSC(=S)OCC = active
CCCC(C)C=O (configuration not stated) = inactive

What classification did CCCOCC(C)O (configuration not stated) end up with in this test? inactive

What classification did `C=CCOc1nc(OCC=C)nc(OCC=C)n1` end up with in this test? inactive

What classification did `Cc1cccc(C)c1C` end up with in this test? inactive

What classification did `C=CC(=O)OCCn1c(=O)n(CCOC(=O)C=C)c(=O)n(CCOC(=O)C=C)c1=O` end up with in this test? active

What classification did `CC(=O)Nc1ccc(C)cc1C` end up with in this test? inactive

What classification did `c1ccc(CCCc2ccccn2)cc1` end up with in this test? inactive

What classification did CCC(C(=O)NC(N)=O)c1ccccc1 (configuration not stated) end up with in this test? inactive

====

- protocol: BSK_KF3CT_SRB: Viability Assessment in the BioMAP Diversity Plus: KF3CT Assay (AID 2283069);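 also: total protein by sulforhodamine B staining as a cytotoxicity measure; read 24 h after compound addition; fitted for both signal gain and loss against DMSO baseline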
- measurement_setup: primary human keratinocytes with fibroblasts
Calls of active or inactive are those of the source. The calls were made as follows: active = hit-call score of the fitted dose curve at least 0.9, where 1 is the maximum; inactive = score below 0.9.
The categories you may choose from are active, inactive

Recorded results for 5 compounds are shown here.
c1ccc2c(c1)c1cccc3ccc4cccc2c4c31 = inactive
CC1CCC(C(C)CS)CC1S (stereo not given) = active
CC(=O)/C=C/C1=C(C)CCCC1(C)C = inactive
C=CCOC(=O)CCC1CCCCC1 = inactive
CCCCC(CC)COC(=O)/C=C\C(=O)OCC(CC)CCCC (stereo not given) = inactive

Now look at this entry.
What classification did `NCCNCCN` end up with in this test? inactive

====

- protocol: ATG_AP_1_CIS: Attagene CIS-FACTORIAL HepG2 Assay for human Activator Protein 1 (AP-1) (AID 2282931)
- measurement_setup: HepG2 Attagene cis-factorial AP-1 reporter mRNA; actives raise or lower the signal
Calls of active or inactive are those of the source. The calls were made as follows: active = hit-call score of the fitted dose curve at least 0.9, where 1 is the maximum; inactive = score below 0.9.
The categories you may choose from are Y for active, N for inactive

CN1Cc2c(N)cccc2C(c2ccccc2)C1 (stereo not drawn) = N
CCCCCCCCCCCCN = N
C=CCOc1nc(OCC=C)nc(OCC=C)n1 = N
CCCCc1ccc(N)cc1 = N
CCN(CC)c1ccc(C(=C2C=CC(=[N+](CC)CC)C=C2)c2ccc(S(=O)(=O)O)cc2S(=O)(=O)[O-])cc1 = N

What classification did `CCC(=O)OCc1ccccc1` end up with in this test? N

What classification did `CCCC(=O)C(C)=O` end up with in this test? N

What classification did `CC(C)(CO)[N+](=O)[O-]` end up with in this test? N

====

- Read-out: Interferon-gamma inducible Protein 10 (IP10), CXCL10 (gene 3627)
- protocol: BSK_KF3CT_IP10: BioMAP Diversity Plus: KF3CT Assay for Interferon-gamma inducible Protein 10 (IP10) Biomarker Activity (AID 2283068)
- measurement_setup: primary human keratinocytes with fibroblasts; actives raise or lower the signal
Calls of active or inactive are those of the source. How the source made its calls: active means hit-call score of the fitted dose curve at least 0.9, where 1 is the maximum; inactive means score below 0.9.
The categories you may choose from are class 1 (active), class 0 (inactive)

Recorded results for 3 molecules are shown here.
O=C(O)c1ccc([N+](=O)[O-])cc1 = class 0
O=C(O)c1cn(C2CC2)c2cc(N3CCNCC3)c(F)cc2c1=O = class 0
CC(=O)O[C@]1(C(C)=O)CC[C@H]2[C@@H]3C[C@H](C)C4=CC(=O)CC[C@]4(C)[C@H]3CC[C@@]21C = class 1

What classification did `C=C[Si](OCC)(OCC)OCC` end up with in this test? class 0

What classification did `Cc1cc(C2(c3cc(C)c(O)cc3C)OS(=O)(=O)c3ccccc32)c(C)cc1O` end up with in this test? class 0

What classification did `CC(=O)[C@H]1CC[C@H]2[C@@H]3CC=C4C[C@@H](O)CC[C@]4(C)[C@H]3CC[C@]12C` end up with in this test? class 0

What classification did `c1ccc2sc(SN(C3CCCCC3)C3CCCCC3)nc2c1` end up with in this test? class 0

What classification did `O=C1OC2(c3cc(Br)c(O)c(Br)c3Oc3c2cc(Br)c(O)c3Br)c2c(Cl)c(Cl)c(Cl)c(Cl)c21` end up with in this test? class 1

====

- protocol: ATG_Sox_CIS: Attagene CIS-FACTORIAL HepG2 Assay for human SRY-box transcription factor (SOX) (AID 2282960)
- measurement_setup: HepG2 Attagene cis-factorial SOX reporter, mRNA; actives raise or lower the signal
Activity calls are given as the source filed them. Rule for the calls: active = hit-call score of the fitted dose curve at least 0.9, where 1 is the maximum; inactive = score below 0.9.
recorded_endpoint: outcome

Cc1ccc(C(=O)c2cc(O)c(O)c([N+](=O)[O-])c2)cc1 = inactive
Cc1ccc2ccccc2n1 = inactive
NCCNCCN = inactive
NC(=O)NC1NC(=O)NC1=O (stereo not given) = inactive

Turning to the following compound.
Reported outcome of CC1COc2ccccc2N1C(=O)C(Cl)Cl (stereo not given) : inactive

====

- protocol: ATG_CMV_CIS: Attagene CIS-FACTORIAL HepG2 Assay for human CMV (Internal Marker) (AID 2282928);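 also: endpoint acts as a background internal control marker rather than a target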
- measurement_setup: HepG2 CMV promoter reporter, transcription factor profiling; actives raise or lower the signal
Activity calls are given as the source filed them. The calls were made as follows: active = hit-call score of the fitted dose curve at least 0.9, where 1 is the maximum; inactive = score below 0.9.
The categories you may choose from are label 1 (active), label 0 (inactive)

Cc1cc(C2(c3cc(C)c(O)cc3C)OS(=O)(=O)c3ccccc32)c(C)cc1O = label 0

What classification did `CC(C)(C)c1n[nH]c(=S)n(N)c1=O` end up with in this test? label 0

What classification did `Clc1ccc2c(c1)C(N1CCNCC1)=Nc1ccccc1O2` end up with in this test? label 0

What classification did c1cc(C(c2ccc(OCC3CO3)cc2)c2ccc(OCC3CO3)cc2)ccc1OCC1CO1 (centres undefined) end up with in this test? label 1

What classification did `Nc1ccc(F)c([N+](=O)[O-])c1` end up with in this test? label 0

What classification did CCCC1CCC(=O)O1 (centres undefined) end up with in this test? label 0

What classification did CC1CC(OC(=O)c2ccccc2O)CC(C)(C)C1 (centres undefined) end up with in this test? label 1

What classification did `NCCCN1CCOCC1` end up with in this test? label 0

What classification did `Clc1sc(Cl)c(Cl)c1Cl` end up with in this test? label 0
